assay: Parallel artificial membrane permeability assay (PAMPA), Blood-Brain Barrier; type: in vitro ADME; settings: initial concentration 200 μM, pH 7.4, 4 hours
Where a SMILES comes first, the peptide text is derived from it. [ ]: non-standard residue; d: D form. The star is where a group is joined. ξ: configuration not given here. Pro(trans-4-F) = O=C(O)[C@@H]1C[C@@H](F)CN1; NMeIle(3ξ) = CCC(C)[C@H](NC)C(=O)O; Dab = NCC[C@H](N)C(=O)O; Hexanoyl = CCCCCC(=O)*; Bz = O=C(c1ccccc1)*; NHOH = ON*
recorded_metric: percentage of transport % T (%)

A selection of reference data follows.
CCCCCC(=O)N1CCC[C@H]1C(=O)N(C)[C@H](C(=O)N[C@@H](CCNC(=O)c1cc(F)cc(F)c1)C(=O)NO)C(C)CC (stereo partly drawn)
9.3
CCCCCC(=O)N1CCC[C@H]1C(=O)N(C)[C@H](C(=O)N[C@@H](CCNC(=O)c1ccccc1)C(=O)NO)C(C)CC (stereo partly drawn) [Example 15] (Hexanoyl-Pro-[NMeIle(3ξ)]-[Dab](Bz)-{NHOH})
2.3
CCC(C)[C@@H](C(=O)N[C@@H](CCNC(=O)c1cc(F)cc(F)c1)C(=O)NO)N(C)C(=O)[C@@H]1CCCN1C(C)=O (stereo partly drawn)
0.8
CCCCCCCC(=O)N1CCC[C@H]1C(=O)N(C)[C@H](C(=O)N[C@@H](CCNC(=O)c1cc(F)cc(F)c1)C(=O)NO)C(C)CC (stereo partly drawn)
14.3
CCC(C)[C@@H](C(=O)N[C@@H](CCNC(=O)c1cc(F)cc(F)c1)C(=O)NO)N(C)C(=O)[C@@H]1CC(F)(F)CN1C(=O)CCCOc1ccccc1 (stereo partly drawn)
13.6
CCCC(CCC)C(=O)N1CCC[C@H]1C(=O)N(C)[C@H](C(=O)N[C@@H](CCNC(=O)c1cc(F)cc(F)c1)C(=O)NO)C(C)CC (stereo partly drawn)
9.0
CCCCCC(=O)N1C[C@H](F)C[C@H]1C(=O)N(C)[C@H](C(=O)N[C@@H](CCNC(=O)c1ccccc1)C(=O)NO)C(C)CC (stereo partly drawn) [Example 16] (Hexanoyl-[Pro(trans-4-F)]-[NMeIle(3ξ)]-[Dab](Bz)-{NHOH})
7.3
CCC(C)[C@@H](C(=O)N[C@@H](CCNC(=O)c1cc(F)cc(F)c1)C(=O)NO)N(C)C(=O)[C@@H]1CCCN1C(=O)CCCOc1ccccc1 (stereo partly drawn)
9.9

I = CCC(C)[C@@H](C(=O)N[C@@H](CCNC(=O)c1cc(F)cc(F)c1)C(=O)NO)N(C)C(=O)[C@@H]1CCCN1C(=O)CC(C)C (stereo partly drawn)
II = CCCC(=O)N1CCC[C@H]1C(=O)N(C)[C@H](C(=O)N[C@@H](CCNC(=O)c1cc(F)cc(F)c1)C(=O)NO)C(C)CC (stereo partly drawn)
III = CCC(C)[C@@H](C(=O)N[C@@H](CCNC(=O)c1ccc(F)cc1)C(=O)NO)N(C)C(=O)[C@@H]1CCCN1C(C)=O (stereo partly drawn)
IV = CCCCCC(=O)N1CC(F)(F)C[C@H]1C(=O)N(C)[C@H](C(=O)N[C@@H](CCNC(=O)c1cc(F)cc(F)c1)C(=O)NO)C(C)CC (stereo partly drawn)
Request: # desc sort on percentage of transport % T across 4 molecules // list labels; follow requested order
Response: IV, I, II, III
